Source listed as patent US20240246946A1.

- Assay system: full length mouse TREX1 (Mus musculus, UniProt Q91XB0)
- Construct: N-terminally His-Tev tagged full length mouse TREX1; made in house; host or cells: E. coli
- Sequence (Q91XB0 whole entry): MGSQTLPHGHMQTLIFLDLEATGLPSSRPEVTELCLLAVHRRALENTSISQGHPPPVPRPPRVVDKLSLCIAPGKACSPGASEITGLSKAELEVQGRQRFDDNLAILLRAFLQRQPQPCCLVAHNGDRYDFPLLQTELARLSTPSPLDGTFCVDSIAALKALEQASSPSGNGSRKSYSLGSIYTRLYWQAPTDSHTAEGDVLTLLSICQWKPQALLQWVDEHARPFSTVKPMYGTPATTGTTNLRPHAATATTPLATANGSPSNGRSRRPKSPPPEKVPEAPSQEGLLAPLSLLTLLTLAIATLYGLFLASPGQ
- Method description: mTREX1 Biochemical Assay (fluorescence, dsDNA substrate degradation)
- Experimental parameters: biochemical, read-out: mTREX1 IC50
The reader will find reported IC50 values listed item by item below.
Experimental readout: IC50

Molecule	Assay system	Value observed
Cc1ccn(C(c2ccccc2C#N)C(C)c2nc(C(=O)Nc3cnoc3)c(O)c(=O)n2C)n1 (single isomer, unassigned) [Example 132 D1E1]	full length mouse TREX1 (Mus musculus, UniProt Q91XB0)	> 10 nM
CC(c1nc(C(=O)Nc2cnoc2)c(O)c(=O)n1C)C(c1cocn1)c1ccccc1C#N (single isomer, unassigned) [Example 50 D1E1]	full length mouse TREX1 (Mus musculus, UniProt Q91XB0)	> 10 nM
CC(c1nc(C(=O)Nc2cnoc2)c(O)c(=O)n1C)C(c1cnn(CCN2CCNCC2)c1)c1ccccc1C#N (single isomer, unassigned) [Example 31 D1E2]	full length mouse TREX1 (Mus musculus, UniProt Q91XB0)	> 10 nM
CCn1cc(C(c2cc(F)ccc2Cl)C(C)c2nc(C(=O)Nc3cnoc3)c(O)c(=O)n2C)cn1 (single isomer, unassigned) [Example 60 D1E1]	full length mouse TREX1 (Mus musculus, UniProt Q91XB0)	1 to 10 nM
CC(c1nc(C(=O)Nc2cnoc2)c(O)c(=O)n1C)C(c1cnn(C(C)C)c1)c1ccccc1C#N (single isomer, unassigned) [Example 105 D1E1]	full length mouse TREX1 (Mus musculus, UniProt Q91XB0)	> 10 nM
COCCn1cc(C(c2ccccc2C#N)C(C)c2nc(C(=O)Nc3cnoc3)c(O)c(=O)n2C)c(C)n1 (single isomer, unassigned) [Example 71 D2E2]	full length mouse TREX1 (Mus musculus, UniProt Q91XB0)	> 10 nM
CC(c1nc(C(=O)Nc2cnoc2)c(O)c(=O)n1C)C(c1cnn(C(F)(F)F)c1)c1ccccc1C#N (single isomer, unassigned) [Example 151 D1E2]	full length mouse TREX1 (Mus musculus, UniProt Q91XB0)	> 10 nM
Cc1n[nH]c(C)c1C(c1ccccc1C#N)C(C)c1nc(C(=O)Nc2cnoc2)c(O)c(=O)n1C (single isomer, unassigned) [Example 95 D2E2]	full length mouse TREX1 (Mus musculus, UniProt Q91XB0)	> 10 nM
Cc1cnc(C)c(C(c2cc(F)ccc2Cl)C(C)c2nc(C(=O)Nc3cnoc3)c(O)c(=O)n2C)n1 (single isomer, unassigned) [Example 121 D1E1]	full length mouse TREX1 (Mus musculus, UniProt Q91XB0)	1 to 10 nM
CC(c1nc(C(=O)Nc2cnoc2)c(O)c(=O)n1C)C(c1nnn(C)n1)c1ccccc1C#N (single isomer, unassigned) [Example 79 D1E2]	full length mouse TREX1 (Mus musculus, UniProt Q91XB0)	> 10 nM
CC(c1nc(C(=O)Nc2cnoc2)c(O)c(=O)n1C)C(c1cnn(C)c1)c1ccncc1C#N (single isomer, unassigned) [Example 8 D2E1]	full length mouse TREX1 (Mus musculus, UniProt Q91XB0)	> 10 nM
Cc1nn(C)cc1C(c1cc(F)ccc1C#N)C(C)c1nc(C(=O)Nc2cnoc2)c(O)c(=O)n1C (single isomer, unassigned) [Example 57 D1E2]	full length mouse TREX1 (Mus musculus, UniProt Q91XB0)	1 to 10 nM
